The measured values listed here are drawn from patent US20210403591A1.

Target: T1, mTfR-1 S196A on Expi293 cells (mouse, UniProt Q62351 1-763)
T1 construct: whole, on cells
T1 sequence (Q62351 whole entry S196A): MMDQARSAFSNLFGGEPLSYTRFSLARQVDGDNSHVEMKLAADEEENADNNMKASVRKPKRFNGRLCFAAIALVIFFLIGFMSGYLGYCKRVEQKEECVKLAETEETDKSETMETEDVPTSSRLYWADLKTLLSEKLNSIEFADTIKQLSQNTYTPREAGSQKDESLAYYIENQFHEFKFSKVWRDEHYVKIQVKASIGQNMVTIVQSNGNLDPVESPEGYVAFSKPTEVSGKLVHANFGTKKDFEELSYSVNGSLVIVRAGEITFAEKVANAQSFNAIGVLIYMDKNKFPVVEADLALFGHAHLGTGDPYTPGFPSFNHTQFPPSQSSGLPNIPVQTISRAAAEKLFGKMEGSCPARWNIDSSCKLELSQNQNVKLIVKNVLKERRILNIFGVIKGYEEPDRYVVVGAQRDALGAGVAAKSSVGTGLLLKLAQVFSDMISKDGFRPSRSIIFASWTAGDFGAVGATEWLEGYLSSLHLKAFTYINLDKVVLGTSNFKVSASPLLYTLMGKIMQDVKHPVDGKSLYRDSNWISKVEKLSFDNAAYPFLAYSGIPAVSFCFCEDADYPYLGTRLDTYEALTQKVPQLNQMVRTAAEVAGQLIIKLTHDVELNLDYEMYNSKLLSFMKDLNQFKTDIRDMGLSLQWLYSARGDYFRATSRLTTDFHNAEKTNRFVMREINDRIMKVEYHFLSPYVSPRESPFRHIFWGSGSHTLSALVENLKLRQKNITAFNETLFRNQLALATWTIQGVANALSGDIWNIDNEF
Test: FACS, transfected Expi293 cells
reported_metric: % double-positive cells vs WT

Per the record, 8D3 antibody (anti-mouse TfR-1 control; 8D3-hFc formatted antibody) (antibody, V domains shown) VH: EVQLVESGGGLVQPGNSLTLSCVASGFTFSNYGMHWIRQAPKKGLEWIAMIYYDSSKMNYADTVKGRFTISRDNSKNTLYLEMNSLRSEDTAMYYCAVPTSHYVVDVWGQGVSVTVSS VL: DIQMTQSPASLSASLEEIVTITCQASQDIGNWLAWYQQKPGKSPQLLIYGATSLADGVPSRFSGSRSGTQFSLKISRVQVEDIGIYYCLQAYNTPWTFGGGTKLELK has % double-positive cells vs WT of 74%

Per the record, Clone C variant 13 VNAR-hFc (Fc fusion, not shown: a dimerising Fc or GST, also called Clone C v13; Clone C var; 13) ARVDQTPQTITKETGESLTINCVLRDSNCALSSTYWYRKKSGSTNEENISKGGRYVETVNSGSKSFSLRINDLTVEDSGTYRCNVVQYPQQDNYFWCDVYGDGTAVTVN has % double-positive cells vs WT of 47%

Per the record, Clone C variant 18 VNAR-hFc (Fc fusion, not shown: a dimerising Fc or GST, also called Clone C v18; Clone C var; 18) ARVDQTPQTITKETGESLTINCVLRDSNCALSSTYWYRKKSGSTNEENISKGGRYVETVNSGSKSFSLRINDLTVEDSGTYRCNVVQYPQYPNYFWCDVYGDGTAVTVN has % double-positive cells vs WT of 104%

Per the record, Clone C VNAR-hFc fusion (Fc fusion, not shown: a dimerising Fc or GST, bivalent VNAR-Fc; also called Clone C-hFc) ARVDQTPQTITKETGESLTINCVLRDSNCALSSTYWYRKKSGSTNEENISKGGRYVETVNSGSKSFSLRINDLTVEDSGTYRCNVVQYPSYNNYFWCDVYGDGTAVTVN has % double-positive cells vs WT of 123%
